# target.system: HLA-A*02 (human)
# measurement.protocol: UV-ligand exchange, anti-b2m ELISA; grade: exchange yield 50%-75%
value.kind: peptide exchange yield

# binder, experimental.value
rows = [
    ("VLADFGARV (also called C1QTNF3-001)", "50 to 75%"),
    ("GVYDGEEHSV (also called MAGEB2-001)", "50 to 75%"),
    ("ALCEENMRGV (also called EEF2-001)", "50 to 75%"),
    ("SLLEKELESV (also called DRG2-001)", "50 to 75%"),
    ("KMDPVAYRV (also called QAR-001)", "50 to 75%"),
    ("KLLEEATISV (also called DYM-001)", "50 to 75%"),
    ("AVLGPLGLQEV (also called THT-001)", "50 to 75%"),
    ("SLSQELVGV (also called ZNF318-001)", "50 to 75%"),
    ("KLSPTVVGL (also called AXIN2-001)", "50 to 75%"),
    ("KLQAGTVFV (also called ALDH1L1-001)", "50 to 75%"),
]
